# Assay system: Protein deacetylase HDAC6 (Homo sapiens)
# Experiment notes: Inhibition of recombinant human His-tagged HDAC6 expressed in baculovirus infected insect cells using Boc Lys(Ac)-AMC as substrate preincubated for 5 mins followed by substrate addition and measured after 30 mins by fluorescence assay
Experimental endpoint: IC50 (nM)
Answers are plain numbers, in nM.

Worked set:
- CC(C)CCc1c(OCCCCOc2ccc(/C=C/C(=O)NO)cc2)ccc2c1OC(=O)CC2: 82.6
- CC(C)CCc1c(OCCOc2cccc(/C=C/C(=O)NO)c2)ccc2c1OC(=O)CC2: 6.31
- CC(C)CCc1c(OCCCOc2cccc(/C=C/C(=O)NO)c2)ccc2c1OC(=O)CC2: 12.1

Switching to the query record.
[Q] Requested field: IC50. Item: `CC(C)CCc1c(OCCOc2ccc(/C=C/C(=O)NO)cc2)ccc2c1OC(=O)CC2`
[A] 55.6

###

# Assay system: Protein deacetylase HDAC6 (Homo sapiens, UniProt Q9UBN7)
# Sequence (Q9UBN7 whole entry): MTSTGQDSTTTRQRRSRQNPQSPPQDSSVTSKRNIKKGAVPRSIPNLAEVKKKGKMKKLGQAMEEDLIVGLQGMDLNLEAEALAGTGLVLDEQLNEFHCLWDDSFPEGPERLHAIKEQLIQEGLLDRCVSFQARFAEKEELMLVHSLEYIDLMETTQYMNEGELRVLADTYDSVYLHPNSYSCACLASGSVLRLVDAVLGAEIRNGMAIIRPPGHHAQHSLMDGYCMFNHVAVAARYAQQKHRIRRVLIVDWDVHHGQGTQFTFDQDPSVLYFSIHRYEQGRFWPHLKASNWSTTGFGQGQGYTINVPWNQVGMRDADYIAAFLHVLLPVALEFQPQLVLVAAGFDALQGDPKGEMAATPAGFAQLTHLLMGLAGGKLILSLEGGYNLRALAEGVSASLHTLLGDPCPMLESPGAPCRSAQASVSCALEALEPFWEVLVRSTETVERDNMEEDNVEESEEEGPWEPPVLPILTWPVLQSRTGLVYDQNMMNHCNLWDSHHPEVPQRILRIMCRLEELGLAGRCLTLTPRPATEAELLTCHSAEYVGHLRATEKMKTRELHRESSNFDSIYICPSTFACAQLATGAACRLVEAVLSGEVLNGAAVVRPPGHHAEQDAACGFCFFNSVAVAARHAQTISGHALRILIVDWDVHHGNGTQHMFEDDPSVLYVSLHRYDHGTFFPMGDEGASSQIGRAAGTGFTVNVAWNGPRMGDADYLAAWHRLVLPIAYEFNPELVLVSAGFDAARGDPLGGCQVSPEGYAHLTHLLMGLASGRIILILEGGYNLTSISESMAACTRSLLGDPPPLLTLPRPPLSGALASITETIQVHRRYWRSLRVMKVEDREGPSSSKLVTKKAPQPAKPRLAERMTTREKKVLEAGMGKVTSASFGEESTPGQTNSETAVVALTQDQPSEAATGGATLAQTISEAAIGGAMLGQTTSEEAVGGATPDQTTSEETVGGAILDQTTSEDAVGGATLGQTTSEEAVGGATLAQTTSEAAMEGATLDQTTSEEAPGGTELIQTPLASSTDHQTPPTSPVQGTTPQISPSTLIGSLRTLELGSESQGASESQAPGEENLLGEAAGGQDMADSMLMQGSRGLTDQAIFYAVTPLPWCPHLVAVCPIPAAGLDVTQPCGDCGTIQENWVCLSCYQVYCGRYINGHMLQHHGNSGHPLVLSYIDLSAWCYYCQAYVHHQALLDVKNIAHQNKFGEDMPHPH
# Experiment notes: Inhibition of recombinant full-length human HDAC6 expressed in baculovirus expression system using FAM-RHKK(Ac)-H2 as substrate measured by electrophoretic mobility shift assay
Assignment: determine reported IC50 for the given compounds.

• O=C(NO)c1ccc2c(c1)CC1(CC2)CCN(Cc2cc(Cl)ccc2Cl)C1=O (stereo unspecified) = 100 to 500 nM

Batch request: IC50 for each of the following compounds.
1. COc1ccc(CN2CCC3(CCc4ccc(C(=O)NO)cc4C3)C2=O)cc1 (stereo unspecified)
2. O=C(NO)c1ccc2c(c1)CC1(CC2)CCN(Cc2ccncc2)C1=O (stereo unspecified)
3. O=C(NO)c1ccc2c(c1)CC1(CC2)CCN(Cc2ccccc2OC(F)(F)F)C1=O (stereo unspecified)
4. CC(C)N1CCC2(CCc3ccc(C(=O)NO)cc3C2)C1=O (stereo unspecified)
5. O=C(NO)c1ccc2c(c1)CC1(CC2)CCN(Cc2ccc(OC(F)(F)F)cc2)C1=O (stereo unspecified)

[A]
["≤ 100 nM", "> 500 nM", "100 to 500 nM", "> 500 nM", "≤ 100 nM"]

###

# Assay system: Polyamine deacetylase HDAC10 (Homo sapiens)
# Sequence (Q969S8 whole entry): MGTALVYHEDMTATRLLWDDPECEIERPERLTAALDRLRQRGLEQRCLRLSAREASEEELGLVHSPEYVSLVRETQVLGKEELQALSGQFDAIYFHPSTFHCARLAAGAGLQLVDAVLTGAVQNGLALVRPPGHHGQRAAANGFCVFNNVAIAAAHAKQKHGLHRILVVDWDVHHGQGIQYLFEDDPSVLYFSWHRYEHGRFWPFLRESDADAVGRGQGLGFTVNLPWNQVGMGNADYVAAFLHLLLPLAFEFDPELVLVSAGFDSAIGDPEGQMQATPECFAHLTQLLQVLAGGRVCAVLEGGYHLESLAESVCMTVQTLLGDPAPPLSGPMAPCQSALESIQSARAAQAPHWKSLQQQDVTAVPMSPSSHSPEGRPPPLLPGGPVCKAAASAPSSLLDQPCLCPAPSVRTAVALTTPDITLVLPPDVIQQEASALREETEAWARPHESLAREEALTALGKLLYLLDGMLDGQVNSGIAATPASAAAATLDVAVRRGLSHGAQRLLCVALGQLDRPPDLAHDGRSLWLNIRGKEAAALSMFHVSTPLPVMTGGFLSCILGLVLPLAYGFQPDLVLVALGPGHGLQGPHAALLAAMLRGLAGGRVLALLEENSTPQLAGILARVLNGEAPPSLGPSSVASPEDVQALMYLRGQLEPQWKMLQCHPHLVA
# Experiment notes: Inhibition of HDAC10 (unknown origin) using (FAM)-labeled acetylated peptide as substrate measured after 17 hrs by fluorescence assay
Experimental endpoint: pIC50
Answers are plain numbers, as −log10 of the molar value.

[Q] Please give the measured pIC50 for this compound: `Nc1cccc(-c2csc(NC(=O)CCCCCCC(=O)Nc3ccccc3N)n2)c1`
[A] 5.54

###

What inhibition was measured for each of the following?
# System: Zea mays
# Experiment notes: Inhibition of maize HD2 at 5 uM using [3H]acetate-labelled histone as substrate by liquid scintillation counting method relative to control
Numbers only, in %.

Here are 3 compounds together with their reported answers.
* Cn1cc(C(=O)c2ccccc2)cc1CCC(=O)NO | 45
* Cn1cc(C(=O)c2ccccc2)cc1/C=C/C(=O)NO | 86
* Cn1cc(C(=O)c2ccc(Cl)cc2)cc1/C=C/C(=O)NO | 87

Each compound below has a reported value. Please supply its inhibition.
1. Cn1cc(C(=O)c2ccccc2)cc1/C=C/C(=O)NN
2. Cc1ccc(C(=O)c2cc(/C=C/C(=O)NO)n(C)c2)cc1

[A]
1: 0.2; 2: 86.4

###

# Assay system: Polyamine deacetylase HDAC10 (Homo sapiens, UniProt Q969S8)
# Experiment notes: Inhibition of human HDAC10 using fluorogenic HDAC substrate
So I've got a bunch of compounds here, and I need their IC50 values.
One number for each entry, in µM.

• O=C(NO)c1ccc(CN2c3ccccc3C3C2CCS3(=O)=O)cc1 (centres undefined) = 13
• O=C(NO)c1ccc(CN2c3cc(C(F)(F)F)ccc3CCC[C@@H]3CCCC[C@H]32)cc1 = 9.4

Query compound follows.
[Q] Entry under review: `O=C(NO)c1ccc(CN2c3ccccc3CC[C@@H]3CCCC[C@H]32)cc1` . Reported IC50?
[A] 14

###

# Assay system: Protein deacetylase HDAC6 (Homo sapiens, UniProt Q9UBN7)
# Experiment notes: Inhibition of HDAC6 (unknown origin)
Classify: 1 when IC50 is strictly less than 10 nM; -1 when IC50 is not.

• COc1cc(/C=C/C(=O)NO)ccc1OCCCN(C)C(=O)c1ccccc1O = -1
• COc1cc(/C=C/C(=O)NO)ccc1OCCCNC(=O)c1ccccc1O = -1
• O=C(NC(CCCCCSSCCO)C(=O)Nc1cccc2cccnc12)OCc1ccccc1 (stereo unspecified) = 1
• O=C(NC(CCCCCSSCCCCCC(NC(=O)OCc1ccccc1)C(=O)Nc1cccc2cccnc12)C(=O)Nc1cccc2cccnc12)OCc1ccccc1 (stereo unspecified) = 1
• C[C@]12CC[C@@H]3c4ccc(O)cc4CC[C@H]3[C@@H]1CC[C@@]2(O)c1cn(CCCCC(=O)NO)nn1 = 1

[Q] IC50 under 10 nM? Item: `C[C@]12CC[C@@H]3c4ccc(O)cc4CC[C@H]3[C@@H]1CC[C@@]2(O)c1cn(CCCCCCCC(=O)NO)nn1`
[A] -1
